- target: VEGFR-2 (Homo sapiens, UniProt P35968)
- Sequence (P35968 20-1356, species assumed): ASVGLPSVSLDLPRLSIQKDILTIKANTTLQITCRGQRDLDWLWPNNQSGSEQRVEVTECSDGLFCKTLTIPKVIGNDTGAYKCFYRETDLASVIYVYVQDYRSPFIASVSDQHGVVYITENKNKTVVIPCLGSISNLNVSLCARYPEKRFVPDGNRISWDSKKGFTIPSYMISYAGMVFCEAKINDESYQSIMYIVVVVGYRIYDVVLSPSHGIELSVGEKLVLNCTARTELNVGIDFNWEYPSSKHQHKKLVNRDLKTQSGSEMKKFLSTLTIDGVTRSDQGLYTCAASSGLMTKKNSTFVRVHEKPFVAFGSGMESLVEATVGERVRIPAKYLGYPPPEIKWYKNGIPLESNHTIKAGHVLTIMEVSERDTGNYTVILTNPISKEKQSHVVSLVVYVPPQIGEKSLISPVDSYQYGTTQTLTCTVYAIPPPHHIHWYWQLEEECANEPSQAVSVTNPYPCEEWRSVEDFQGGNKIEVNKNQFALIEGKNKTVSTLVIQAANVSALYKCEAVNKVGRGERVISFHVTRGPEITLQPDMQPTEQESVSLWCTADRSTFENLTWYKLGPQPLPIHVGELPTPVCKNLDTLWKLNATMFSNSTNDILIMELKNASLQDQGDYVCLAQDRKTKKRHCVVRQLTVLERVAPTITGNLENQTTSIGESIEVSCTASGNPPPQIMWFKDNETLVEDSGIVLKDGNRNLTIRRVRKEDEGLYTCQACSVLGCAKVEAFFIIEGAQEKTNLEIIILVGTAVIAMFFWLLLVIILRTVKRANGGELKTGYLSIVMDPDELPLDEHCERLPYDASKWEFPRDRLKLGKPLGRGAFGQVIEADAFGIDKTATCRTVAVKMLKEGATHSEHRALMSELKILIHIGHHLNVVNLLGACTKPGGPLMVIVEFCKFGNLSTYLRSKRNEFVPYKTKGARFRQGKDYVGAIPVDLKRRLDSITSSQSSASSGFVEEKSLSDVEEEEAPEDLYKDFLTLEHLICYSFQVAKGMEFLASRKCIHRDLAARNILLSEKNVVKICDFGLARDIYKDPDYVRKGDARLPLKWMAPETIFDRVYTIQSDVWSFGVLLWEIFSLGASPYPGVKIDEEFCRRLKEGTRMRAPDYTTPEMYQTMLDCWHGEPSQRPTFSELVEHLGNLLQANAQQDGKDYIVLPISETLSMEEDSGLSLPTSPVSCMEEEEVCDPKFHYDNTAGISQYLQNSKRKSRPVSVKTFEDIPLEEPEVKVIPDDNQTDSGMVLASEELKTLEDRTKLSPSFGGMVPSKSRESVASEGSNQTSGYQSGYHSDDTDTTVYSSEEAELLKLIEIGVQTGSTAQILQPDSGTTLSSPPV
- assay_info: Kinase inhibition assay (ELISA)
- Assay type: biochemical
- particulars: 1.5 µM ATP
Kindly supply the reported IC50 values for the records listed here.

Worked examples, 5 molecules total:
molecule: CS(=O)(=O)N1CCC(Cc2ccnc(Nc3ncc(-c4ccc(F)cc4)s3)c2)CC1 [Example 005]
IC50: > 10 nM
//
molecule: CC(C)(C)OC(=O)N1CCC(c2cccc(Nc3ncc(C#CC4CC4)s3)n2)CC1 [Example 045]
IC50: > 10 nM
//
molecule: OCCN1CCC(Cc2ccnc(Nc3ncc(-c4ccc(F)cc4)s3)c2)CC1 [Example 003]
IC50: > 10 nM
//
molecule: Fc1ccc(-c2cnc(Nc3cc(CC4CNCCNC4)ccn3)s2)cc1 [Example 019]
IC50: > 10 nM
//
molecule: OCC(O)CN1CCC(c2ccnc(Nc3ncc(-c4ccc(F)cc4)s3)c2)CC1 (stereo not drawn) [Example 034]
IC50: > 10 nM

Hi! Can you tell me IC50 for each of these molecules?
1. OCCN1CCOCC(Cc2ccnc(Nc3ncc(-c4ccc(F)cc4)s3)c2)C1 (stereo not drawn) [Example 011]
2. Fc1ccc(-c2cnc(Nc3cc(CC4CCNCC4)ccn3)s2)cc1 [Example 001]

OUTPUT:
> 10 nM
> 10 nM

Hi! Can you tell me IC50 for each of these molecules?
1. Cc1nc(Nc2ncc(-c3ccccc3)s2)cc(C2CCN(CCO)CC2)n1 [Example 032]
2. OCCN1CCC(c2ccnc(Nc3ncc(CC(F)(F)F)s3)c2)CC1 [Example 040]

OUTPUT:
["> 10 nM", "> 100 nM"]

* * *

Kindly supply the reported Kp values for the records listed here.
- assay_info: In vivo PK study, determination of brain-to-plasma ratio
- particulars: mouse, brain; SHK mice, PO dosing 5mg/kg, 20% water solution of HPβCD; read-out: brain-to-plasma concentration ratio
- Method: Male SHK mice (22-25 g) were dosed with 5 mg/kg of related compounds as a single injection via oral gavage (formulated in 20% water solution of HPβCD). Blood samples and whole brains were collected from three mice at each of eight collection time points of 0.05, 0.25, 0.5, 1, 2, 4, 8 and 24 h post dose. […] Both tissues were analyzed for concentrations of related compounds by liquid chromatography-mass spectrometry (LC-MS/MS). […]
Numbers only.

compound: OCCN1CCC(c2ccnc(Nc3ncc(-c4ccc(F)cc4)s3)c2)CC1 [Example 035]
Kp: 18.5

INPUT: Could you share which Kp value was measured for COC(=O)C1CC(Cc2ccnc(Nc3ncc(-c4ccccc4)s3)c2)CC1N (centres unmarked) [Example 023] ?
OUTPUT: 0.78

* * *

- assay_info: In vivo PK study, determination of brain-to-plasma ratio
- particulars: male, mouse, brain/plasma; SHK mice, PO dosing 5mg/kg, 20% water solution of HPβCD; read-out: brain-to-plasma concentration ratio
measure_name: Kp
Give bare numbers.

molecule: O=C(Nc1ccccc1Cl)c1cnc(Nc2cc(C3CCN(CCO)CC3)ccn2)s1
Kp: 0.19

molecule: OCC(O)CN1CCC(c2ccnc(Nc3ncc(-c4ccc(F)cc4)s3)c2)CC1 (centres unmarked)
Kp: 1.79

Hi! Can you tell me Kp for each of these molecules?
1. OCCN1CCOCC(Cc2ccnc(Nc3ncc(-c4ccc(F)cc4)s3)c2)C1 (centres unmarked)
2. Fc1ccc(-c2cnc(Nc3cccc(CC4CNCCOC4)n3)s2)cc1 (centres unmarked)
3. OCCN1CCC(c2ccnc(Nc3ncc(CC(F)(F)F)s3)c2)CC1

OUTPUT:
12.7
0.59
1.38

Entry source: patent EP2719696A1
